# System: Vero
# measurement.protocol: Minimum inhibitory concentration (antiviral activity) was screened in Vero cells against polio type 1 (Sabin strain, Sb-1)
# Type: functional
# settings: Chlorocebus sabaeus
So basically: is MIC under 30 µM? Then YES. Not under? Then NO.

Here are 2 molecules together with their reported answers.
CCOC(=O)c1ccc(OCCCCC(=O)c2cc(C=O)n(C)c2)cc1
YES
CCOC(=O)c1ccc(OCCCCC(=O)c2ccc(C)o2)cc1
YES

# input I'd appreciate it if you could check whether Clc1ccc(CCCCCOc2ccc(C3=NCCO3)cc2)s1 has MIC smaller than 30 µM.
# output YES

# input Likewise for Cn1cc(C(=O)CCCCOc2ccc(C(=O)O)cc2)cc1C=O ?
# output NO

# input Entry O=C(CCCCOc1ccc(C2=NCCO2)cc1)c1ccc(Cl)s1 please
# output NO

# input Likewise for CCOC(=O)c1ccc(OCCCCC(=O)c2ccc(Cl)s2)cc1 ?
# output NO

# input Thanks! And O=C(O)c1ccc(OCCCCCc2ccc(Cl)s2)cc1 ?
# output YES

# input // next record O=C(CCCCOc1ccc(C2=NCCO2)cc1)c1ccc[nH]1
# output NO

# input Same thing, different molecule: Cn1cccc1C(=O)CCCCOc1ccc(C2=NCCO2)cc1
# output NO

---

# Test system: Vero
# measurement.protocol: Minimum inhibitory concentration (antiviral activity) was screened in Vero cells against herpes simplex virus type 1 (HSV-1)
# Type: functional
# settings: Chlorocebus sabaeus
property.name: MIC

// worked examples, MIC included
O=C(O)c1ccc(OCCCCCc2ccc(Cl)s2)cc1
> 60 µM
CCOC(=O)c1ccc(OCCCCC(=O)c2ccc(Cl)s2)cc1
> 190 µM

# input For the compound O=C(CCCCOc1ccc(C2=NCCO2)cc1)c1ccc(Cl)s1 , what MIC is on record?
# output > 275 µM

# input Quick one: Clc1ccc(CCCCCOc2ccc(C3=NCCO3)cc2)s1
# output > 30 µM

# input Please give the result for CCOC(=O)c1ccc(OCCCCC(=O)c2ccc(C)o2)cc1 too.
# output 75 µM

# input Follow-up entry: O=C(O)c1ccc(OCCCCC(=O)c2ccc(Cl)s2)cc1
# output > 170 µM

---

# System: Vero
# measurement.protocol: Maximum testable level was evaluated in Vero cells that causes no apparent effects on cell monolayers.
# Type: functional, Chlorocebus sabaeus
property.name: MTL

Please review the following examples before continuing.
O=C(O)c1ccc(OCCCCC(=O)c2ccc(Cl)s2)cc1
>170 µM
Cn1cccc1C(=O)CCCCOc1ccc(C2=NCCO2)cc1
>300 µM
Clc1ccc(CCCCCOc2ccc(C3=NCCO3)cc2)s1
30 µM

# input Consider the compound shown here: O=C(O)c1ccc(OCCCCCc2ccc(Cl)s2)cc1 What is its recorded MTL?
# output 60 µM

# input Another: CCOC(=O)c1ccc(OCCCCC(=O)c2ccc(C)o2)cc1
# output >120 µM

# input Cn1cc(C(=O)CCCCOc2ccc(C(=O)O)cc2)cc1C=O ?
# output 380 µM

# input Can you handle O=C(CCCCOc1ccc(C2=NCCO2)cc1)c1ccc[nH]1 next?
# output >175 µM

# input And the next one, CCOC(=O)c1ccc(OCCCCC(=O)c2cc(C=O)n(C)c2)cc1 ?
# output 55 µM

# input Likewise for Cn1cc(C(=O)CCCCOc2ccc(C3=NCCO3)cc2)cc1C=O ?
# output >280 µM

# input Try this compound next: CCOC(=O)c1ccc(OCCCCC(=O)c2ccc(Cl)s2)cc1
# output >190 µM

# input Same again, this time with O=C(CCCCOc1ccc(C2=NCCO2)cc1)c1ccc(Cl)s1
# output >275 µM

---

# Test system: Vero
# measurement.protocol: Minimum inhibitory concentration (antiviral activity) was screened in Vero cells against herpes simplex virus type 1 (HSV-1)
# Type: functional
# settings: Chlorocebus sabaeus
property.name: MIC

CCOC(=O)c1ccc(OCCCCC(=O)c2cc(C=O)n(C)c2)cc1
> 55 µM

# input Please give the measured MIC for this molecule: Cn1cc(C(=O)CCCCOc2ccc(C3=NCCO3)cc2)cc1C=O
# output > 280 µM

# input Cn1cc(C(=O)CCCCOc2ccc(C(=O)O)cc2)cc1C=O ?
# output > 380 µM

# input And the next one, O=C(CCCCOc1ccc(C2=NCCO2)cc1)c1ccc[nH]1 ?
# output > 175 µM

# input Similarly, Cn1cccc1C(=O)CCCCOc1ccc(C2=NCCO2)cc1 ?
# output > 300 µM
